Biological target: human hGHSR1a-vasopressin receptor 2 tail chimera
Test: β-arr2^GFP translocation, compound screening (U2OS)
Conditions: secondary assay of HTS hits; read-out: Beta-arrestin translocation EC50
EC50 overview
Numeric only. Scale: µM

Some solved entries appear below for comparison.
| compound | EC50 [µM] |
| --- | --- |
| Cc1ccc2oc3c(c(=O)c2c1)C(c1cccc(Cl)c1)N(CCCN1CCOCC1)C3=O (stereo not shown) | 6.3 |
| CCOc1cccc(C2c3c(oc4ccc(F)cc4c3=O)C(=O)N2CCOC)c1 (stereo not shown) | 2 |
| C[C@@H](O)CNC(C)(C)CC(=O)N[C@@H]1CCc2ccccc2N(Cc2ccc(-c3ccccc3-c3nn[nH]n3)cc2)C1=O [Example L626.585, reference compound] | 0.024 |
| CCCOc1cccc(C2c3c(oc4ccc(F)cc4c3=O)C(=O)N2CCCN2CCOCC2)c1 (stereo not shown) | 1.74 |

Recorded EC50 for Cc1ccc2oc3c(c(=O)c2c1)C(c1cccc(O)c1)N(CCCN1CCOCC1)C3=O (stereo not shown) , please?
1.55

Recorded EC50 for CCOc1ccc(C2c3c(oc4ccccc4c3=O)C(=O)N2CCCN2CCOCC2)cc1OCC (stereo not shown) , please?
0.00298

Recorded EC50 for CCCOc1ccc(C2c3c(oc4cc(C)c(C)cc4c3=O)C(=O)N2CCCN2CCOCC2)cc1 (stereo not shown) , please?
0.0312

###

Molecular target: human hGHSR1a-vasopressin receptor 2 tail chimera
Experiment: β-arr2^GFP translocation, compound screening (U2OS)
Conditions: secondary assay of HTS hits; read-out: Beta-arrestin translocation EC50
property_measured: pEC50
pEC50 (log units): -log10 of the concentration in mol/L.

Some solved entries appear below for comparison.
| compound | experimental_target | number |
| --- | --- | --- |
| CCOc1ccc(C2c3c(oc4ccc(C)cc4c3=O)C(=O)N2CCCN2CCOCC2)cc1 (stereo not shown) | human hGHSR1a-vasopressin receptor 2 tail chimera | 8.66 |
| O=C1c2oc3ccccc3c(=O)c2C(c2ccccc2F)N1Cc1ccc2c(c1)OCO2 (stereo not shown) | human hGHSR1a-vasopressin receptor 2 tail chimera | 6.28 |
| CCCOc1cccc(C2c3c(oc4cc(C)c(C)cc4c3=O)C(=O)N2CCCN2CCOCC2)c1 (stereo not shown) | human hGHSR1a-vasopressin receptor 2 tail chimera | 8.37 |

Let us move to another entry and its pEC50.
Recorded pEC50 for COc1ccc(C2c3c(oc4ccc(C)cc4c3=O)C(=O)N2CCCN2CCOCC2)cc1OC (stereo not shown) , please?
5.27

###

Tested on: human hGHSR1a-vasopressin receptor 2 tail chimera
Experiment: β-arr2^GFP translocation, compound screening (U2OS)
Format: cell-based
Details: secondary assay of HTS hits; normalized to L585
property_measured: Beta-arrestin translocation ECmax (%)
Numeric only. Scale: %

| compound | number |
| --- | --- |
| CCOc1ccc(C2c3c(oc4ccc(C)cc4c3=O)C(=O)N2CCCN(C)C)cc1OC (stereo not drawn) [NCGC00141956] | 107 |

Recorded Beta-arrestin translocation ECmax (%) for O=C1c2oc3ccccc3c(=O)c2C(c2ccccc2F)N1Cc1ccc2c(c1)OCO2 (stereo not drawn) [NCGC00101942] , please?
12

Recorded Beta-arrestin translocation ECmax (%) for CCCOc1ccc(C2c3c(oc4cc(C)c(C)cc4c3=O)C(=O)N2CCCN(C)C)cc1OCC (stereo not drawn) [MLS000115621] , please?
0

###

Assay: Pharmacokinetic analysis in C57BL/6 mice
Details: male, C57BL/6, mouse, liver, iv, 1 mg/kg
property_measured: AUC(0-t)
Kindly write the number and append the unit.

Recorded AUC(0-t) for COc1ccc(C(=O)c2c(C(=O)NCCCN(C)C)oc3ccc(Cl)cc3c2=O)cc1OC , please?
57100 ng·h/mL

###

Tested on: human hGHSR1a-vasopressin receptor 2 tail chimera
Assay: β-arr2^GFP translocation, compound screening (U2OS)
Format: cell-based
Conditions: secondary assay of HTS hits; normalized to L585
property_measured: Beta-arrestin translocation ECmax (%)
Numeric only. Scale: %

Some solved entries appear below for comparison.
| molecule | Beta-arrestin translocation ECmax (%) |
| --- | --- |
| CCOc1ccc(C2c3c(oc4ccc(C)cc4c3=O)C(=O)N2CCCN2CCOCC2)cc1 (centres unmarked) [NCGC00141056] | 19 |
| Cc1ccc2oc3c(c(=O)c2c1)C(c1ccccc1F)N(CCCN(C)C)C3=O (centres unmarked) [NCGC00101939] | 20 |
| COc1cc(C2c3c(oc4cc(C)c(C)cc4c3=O)C(=O)N2CCCN2CCOCC2)ccc1O (centres unmarked) [NCGC00101915] | 368 |
| CCCOc1ccc(C2c3c(oc4ccccc4c3=O)C(=O)N2c2ccc(C)cn2)cc1OCC (centres unmarked) [NCGC00101673] | 49 |
| COc1cccc(C2c3c(oc4ccc(C)cc4c3=O)C(=O)N2CCCN2CCOCC2)c1OC (centres unmarked) [NCGC00136166] | 11 |
| CC(C)c1ccc(C2c3c(oc4ccc(Cl)cc4c3=O)C(=O)N2CCCN2CCOCC2)cc1 (centres unmarked) [NCGC00119774] | 163 |
| Cc1ccc2oc3c(c(=O)c2c1)C(c1cccc(O)c1)N(CCCN1CCOCC1)C3=O (centres unmarked) [NCGC00101913] | 153 |

Let us move to another entry and its Beta-arrestin translocation ECmax (%).
Recorded Beta-arrestin translocation ECmax (%) for CCOc1ccc(C2c3c(oc4ccccc4c3=O)C(=O)N2CCCN2CCOCC2)cc1OCC (centres unmarked) [MLS000115604] , please?
38

###

Target: hGHSR1a^WT (Homo sapiens, UniProt Q92847)
Sequence (Q92847 whole entry): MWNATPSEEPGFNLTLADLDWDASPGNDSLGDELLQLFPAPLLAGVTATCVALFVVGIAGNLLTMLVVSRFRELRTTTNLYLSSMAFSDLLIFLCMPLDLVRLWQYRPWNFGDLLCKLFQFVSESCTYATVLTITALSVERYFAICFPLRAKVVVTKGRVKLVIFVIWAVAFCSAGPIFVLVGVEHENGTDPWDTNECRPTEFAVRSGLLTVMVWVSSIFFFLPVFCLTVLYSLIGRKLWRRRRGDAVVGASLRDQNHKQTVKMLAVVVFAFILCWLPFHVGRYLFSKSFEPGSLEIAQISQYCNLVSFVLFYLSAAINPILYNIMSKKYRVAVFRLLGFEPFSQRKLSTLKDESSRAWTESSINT
Assay: Gαq-dependent intracellular Ca2+ mobilization (iCa2+, miAeq)
Settings: secondary assay of HTS hits; read-out: Calcium signaling EC50
property_measured: EC50 (nM)
Numeric only. Scale: nM

Some solved entries appear below for comparison.
| molecule | measure_unit | EC50 |
| --- | --- | --- |
| CC(C)CCOc1cccc(C2c3c(oc4ccccc4c3=O)C(=O)N2CCCN2CCOCC2)c1 (stereo not shown) | nM | 6.81 |
| CCCOc1cccc(C2c3c(oc4cc(C)c(C)cc4c3=O)C(=O)N2CCCN2CCOCC2)c1 (stereo not shown) | nM | 4.3 |
| Cc1ccc2oc3c(c(=O)c2c1)C(c1ccc([N+](=O)[O-])cc1)N(CCCN1CCOCC1)C3=O (stereo not shown) | nM | 12000 |

Let us move to another entry and its EC50.
Recorded EC50 for Cc1ccc2oc3c(c(=O)c2c1)C(c1cccc(Cl)c1)N(CCCN1CCOCC1)C3=O (stereo not shown) , please?
0.32

###

Target: hGHSR1a^WT (Homo sapiens, UniProt Q92847)
Experiment: Gαq-dependent intracellular Ca2+ mobilization (iCa2+, miAeq)
Settings: secondary assay of HTS hits; read-out: Calcium signaling EC50
property_measured: pEC50
pEC50 (log units): -log10 of the concentration in mol/L.

| molecule | experimental_target | number |
| --- | --- | --- |
| CSc1ccc(C2c3c(oc4ccccc4c3=O)C(=O)N2CCCN2CCOCC2)cc1 (stereo not drawn) | hGHSR1a^WT (Homo sapiens, UniProt Q92847) | 5.47 |

Recorded pEC50 for Cc1ccc2oc3c(c(=O)c2c1)C(c1ccc(O)cc1)N(CCCN(C)C)C3=O (stereo not drawn) , please?
5.56

Recorded pEC50 for CCOc1ccc(C2c3c(oc4ccc(C)cc4c3=O)C(=O)N2CCCN(C)C)cc1OC (stereo not drawn) , please?
6.48

Recorded pEC50 for COc1cccc(C2c3c(oc4ccccc4c3=O)C(=O)N2CCCN2CCOCC2)c1 (stereo not drawn) [MLS000115599] , please?
4.69

Recorded pEC50 for Cc1ccc2oc3c(c(=O)c2c1)C(c1ccccc1F)N(CCCN1CCOCC1)C3=O (stereo not drawn) , please?
8.65

Recorded pEC50 for COc1cccc(C2c3c(oc4ccccc4c3=O)C(=O)N2CCCN2CCOCC2)c1 (stereo not drawn) [MLS002585710] , please?
7.75

Recorded pEC50 for CCCCOCCCn1c(N)c(C(=O)OC(C)COC)c2nc3ccccc3nc21 (stereo not drawn) , please?
8.51

Recorded pEC50 for CCCOc1ccc(C2c3c(oc4ccccc4c3=O)C(=O)N2c2ccc(C)cn2)cc1OCC (stereo not drawn) , please?
4.49

###

Biological target: human hGHSR1a-vasopressin receptor 2 tail chimera
Assay: β-arr2^GFP translocation, compound screening (U2OS)
Assay type: cell-based
Details: secondary assay of HTS hits; read-out: Beta-arrestin translocation EC50
We label by threshold. Values of EC50 strictly beneath 0.1 µM are 1. Values of 0.1 µM and up are 0.

| compound | experimental_target | class_label |
| --- | --- | --- |
| CCOc1cc(C2c3c(oc4ccccc4c3=O)C(=O)N2Cc2ccc(OC)cc2)ccc1O (stereo not drawn) | human hGHSR1a-vasopressin receptor 2 tail chimera | 1 |
| Cc1ccc2oc3c(c(=O)c2c1)C(c1ccccc1F)N(CCCN(C)C)C3=O (stereo not drawn) | human hGHSR1a-vasopressin receptor 2 tail chimera | 1 |
| CCOc1ccc(C2c3c(oc4ccc(C)cc4c3=O)C(=O)N2CCCN(C)C)cc1 (stereo not drawn) | human hGHSR1a-vasopressin receptor 2 tail chimera | 0 |
| CC(C)c1ccc(C2c3c(oc4ccc(Cl)cc4c3=O)C(=O)N2CCCN2CCOCC2)cc1 (stereo not drawn) | human hGHSR1a-vasopressin receptor 2 tail chimera | 0 |
| CCCCOc1ccc(C2c3c(oc4ccc(C)cc4c3=O)C(=O)N2CCCN(C)C)cc1OCC (stereo not drawn) | human hGHSR1a-vasopressin receptor 2 tail chimera | 1 |

Confirm or reject: EC50 of Cc1ccc2oc3c(c(=O)c2c1)C(c1ccc(O)cc1)N(CCCN(C)C)C3=O (stereo not drawn) lies strictly below 0.1 µM
0

Confirm or reject: EC50 of COc1cc(C2c3c(oc4cc(C)c(C)cc4c3=O)C(=O)N2CCCN2CCOCC2)ccc1O (stereo not drawn) lies strictly below 0.1 µM
0

Confirm or reject: EC50 of COc1ccc(OC)c(C2c3c(oc4ccc(C)cc4c3=O)C(=O)N2CCCN(C)C)c1 (stereo not drawn) lies strictly below 0.1 µM
0
